Entries and their measured Kd follow.
target: HLA-A*03:01; test: IEDB peptide-MHC binding, purified MHC/competitive/radioactivity; filed as Kd, often an IC50 or EC50 that approximates it; bounds were set here for any values at or beyond the usual limits of such assays; conditions: source organism: Dengue virus 2 Jamaica/1409/1983
Give your result as the value with the unit written after it.

Sequence String: RTTWSIHAK
Quantity Measured: Kd
Value: 6.99 nM
--
Sequence String: ALNDTWKMEK
Quantity Measured: Kd
Value: 82.4 nM

Req: I would be grateful if you could share the reported Kd for SILASSLLK .
Resp: 13.8 nM

Req: Same question, IVTCAMFTCK this time
Resp: 362 nM

Req: Same question, RLPTFMTQK this time
Resp: 2.36 nM
